Provenance of the data: patent US20140066362A1

Tested on: E. coli ΔsseA (3MST-deficient) strain
Format: cell-based
Details: Table 1; relative values of growth inhibition (negative numbers), ΔsseA vs wt E. coli
Use -300 as the dividing line for ΔsseA inhibition of growth, with the line itself on the Yes side and lower values as No.

Textbook exercise: given the entry `CC(C)c1nc2nc(N)nc(N)c2nc1C(C)C` , state whether its ΔsseA inhibition of growth is greater than or equal to -300.
No

Textbook exercise: given the entry `Cn1cnc([N+](=O)[O-])c1Sc1ncnc2nc[nH]c12` , state whether its ΔsseA inhibition of growth is greater than or equal to -300.
No

Textbook exercise: given the entry `O=C1C=C(O)C(=O)c2ccccc21` , state whether its ΔsseA inhibition of growth is greater than or equal to -300.
No

Textbook exercise: given the entry O=S(=O)(F)Cc1ccccc1 [Phenyl-methylsulfonyl-fluoride (PMSF), Phenyl-methylsulfonyl-fluoride] , state whether its ΔsseA inhibition of growth is greater than or equal to -300.
Yes

Textbook exercise: given the entry `CCn1cc(C(=O)O)c(=O)c2cc3c(cc21)OCO3` , state whether its ΔsseA inhibition of growth is greater than or equal to -300.
Yes

Textbook exercise: given the entry NO [Hydroxylamine] , state whether its ΔsseA inhibition of growth is greater than or equal to -300.
Yes

Textbook exercise: given the entry `[H]/N=C(/N)N[C@H]1[C@H](O)[C@@H](O)[C@H](O[C@@H]2O[C@@H](C)[C@](O)(C=O)[C@H]2O[C@@H]2O[C@@H](CO)[C@H](O)[C@@H](O)[C@@H]2NC)[C@@H](N/C(N)=N\[H])[C@@H]1O` , state whether its ΔsseA inhibition of growth is greater than or equal to -300.
No

Textbook exercise: given the entry `O=C(O)C=Cc1ccccc1` , state whether its ΔsseA inhibition of growth is greater than or equal to -300.
Yes

Textbook exercise: given the entry `O=[N+]([O-])c1ccc(Cl)c([N+](=O)[O-])c1` , state whether its ΔsseA inhibition of growth is greater than or equal to -300.
Yes

Textbook exercise: given the entry O=C1OC(CN2CCOCC2)CN1/N=C/c1ccc([N+](=O)[O-])o1 (stereo not shown) , state whether its ΔsseA inhibition of growth is greater than or equal to -300.
Yes

Textbook exercise: given the entry `CC1(C)S[C@@H]2[C@H](NC(=O)Cc3ccccc3)C(=O)N2[C@H]1C(=O)O` , state whether its ΔsseA inhibition of growth is greater than or equal to -300.
Yes

Textbook exercise: given the entry `Oc1c(Cl)c(Cl)c(Cl)c(Cl)c1Cl` , state whether its ΔsseA inhibition of growth is greater than or equal to -300.
Yes

Textbook exercise: given the entry Cc1ncc([N+](=O)[O-])n1CC(O)CCl (stereo not shown) , state whether its ΔsseA inhibition of growth is greater than or equal to -300.
Yes

Textbook exercise: given the entry CC(CN1c2ccccc2Sc2ccccc21)N(C)C (stereo not shown) , state whether its ΔsseA inhibition of growth is greater than or equal to -300.
Yes

Textbook exercise: given the entry `N[C@H](CO)C(=O)O` , state whether its ΔsseA inhibition of growth is greater than or equal to -300.
No

Textbook exercise: given the entry CC1(C)S[C@@H]2[C@H](NC(=O)C(C(=O)O)c3ccccc3)C(=O)N2[C@H]1C(=O)O (stereo partly shown) , state whether its ΔsseA inhibition of growth is greater than or equal to -300.
Yes

Textbook exercise: given the entry `N#CC(C#N)=NNc1cccc(Cl)c1` , state whether its ΔsseA inhibition of growth is greater than or equal to -300.
No

Textbook exercise: given the entry NC(CO)C(=O)NNCc1ccc(O)c(O)c1O (stereo not shown) [Benserazide] , state whether its ΔsseA inhibition of growth is greater than or equal to -300.
No

====

System: E. faecium A2373
Experiment: MIC of antibiotics with or without PAG/AOAA
Assay type: cell-based
Conditions: in the presence of 0.1 mM AOAA
PROPERTY_MEASURED: Minimum inhibitory concentration (µg/mL)
Express the result in µg/mL but write the number alone.

Record C[C@@H](O)[C@H]1C(=O)N2C(C(=O)O)=C(S[C@@H]3CN[C@H](C(=O)N(C)C)C3)[C@H](C)[C@H]12 [Meropenom, meropenem] / E. faecium A2373, Minimum inhibitory concentration recorded as 6

Record O=C(N[C@H](CO)[C@H](O)c1ccc([N+](=O)[O-])cc1)C(Cl)Cl [Chloramphenicol] / E. faecium A2373, Minimum inhibitory concentration recorded as 2

Record CN[C@H](CC(C)C)C(=O)N[C@H]1C(=O)N[C@@H](CC(N)=O)C(=O)N[C@H]2C(=O)N[C@H]3C(=O)N[C@H](C(=O)N[C@H](C(=O)O)c4cc(O)cc(O)c4-c4cc3ccc4O)[C@H](O)c3ccc(c(Cl)c3)Oc3cc2cc(c3O[C@@H]2O[C@H](CO)[C@@H](O)[C@H](O)[C@H]2O[C@H]2C[C@](C)(N)[C@H](O)[C@H](C)O2)Oc2ccc(cc2Cl)[C@H]1O [Vancomycin] / E. faecium A2373, Minimum inhibitory concentration recorded as 2

Record CCN1CCN(C(=O)N[C@@H](C(=O)N[C@@H]2C(=O)N3[C@@H]2SC(C)(C)[C@@H]3C(=O)O)c2ccccc2)C(=O)C1=O [Piperacilin, piperacillin] / E. faecium A2373, Minimum inhibitory concentration recorded as 6

Record CC(=O)NC[C@H]1CN(c2ccc(N3CCOCC3)c(F)c2)C(=O)O1 [Linezold, linezolid] / E. faecium A2373, Minimum inhibitory concentration recorded as 2

Record C[C@H]1COc2c(N3CCN(C)CC3)c(F)cc3c(=O)c(C(=O)O)cn1c23 [Levoflaxacin, levofloxacin] / E. faecium A2373, Minimum inhibitory concentration recorded as 2

====

Tested on: E. faecium A2373
Assay: MIC of antibiotics with or without PAG/AOAA
Format: cell-based
Conditions: in the presence of 0.5 mM PAG + 0.05 mM AOAA
PROPERTY_MEASURED: Minimum inhibitory concentration (µg/mL)
Express the result in µg/mL but write the number alone.

# compound C[C@H]1COc2c(N3CCN(C)CC3)c(F)cc3c(=O)c(C(=O)O)cn1c23 [Levoflaxacin, levofloxacin] ; its Minimum inhibitory concentration = 2

# compound O=C(N[C@H](CO)[C@H](O)c1ccc([N+](=O)[O-])cc1)C(Cl)Cl [Chloramphenicol] ; its Minimum inhibitory concentration = 8

====

System: E. coli ΔsseA (3MST-deficient) strain
Assay type: cell-based
Conditions: Table 1; relative values of growth inhibition (negative numbers), ΔsseA vs wt E. coli
Give measured ΔsseA inhibition of growth for each item. Keep answers brief.
Answer field: number only, no words.

# compound `CN(CC[C@H](N)CC(=O)N[C@H]1C=C[C@H](n2ccc(N)nc2=O)O[C@@H]1C(=O)O)C(=N)N` ; its ΔsseA inhibition of growth = −185

# compound CO[C@@]1(NC(=O)C(C(=O)O)c2ccc(O)cc2)C(=O)N2C(C(=O)O)=C(CSc3nnnn3C)CO[C@@H]21 (stereo partly drawn) ; its ΔsseA inhibition of growth = −171

# compound `CN(C)c1ccc(C(=C2C=CC(=[N+](C)C)C=C2)c2ccc(N(C)C)cc2)cc1` ; its ΔsseA inhibition of growth = −576

# compound `O=[N+]([O-])c1ccc(-n2nc(-c3ccccc3)n[n+]2-c2ccc(I)cc2)cc1.[Cl-]` ; its ΔsseA inhibition of growth = −215

# compound CN[C@@H]1[C@@H](O[C@H]2O[C@H](CO)[C@@H](N)[C@H](O)[C@H]2O)OC2C[C@@H](N)[C@@H](O[C@H]3[C@H](O)[C@@H](O)[C@H](N)C[C@@H]3N)OC2[C@@H]1O (stereo partly drawn) ; its ΔsseA inhibition of growth = −179

# compound `CC(=O)OCC1=C(C(=O)O)N2C(=O)[C@@H](NC(=O)Cc3cccs3)[C@H]2SC1` ; its ΔsseA inhibition of growth = −160

# compound `CO[C@H]1/C=C/O[C@@]2(C)Oc3c(C)c([O-])c4c(O)c(cc(O)c4c3C2=O)NC(=O)/C(C)=C\C=C\[C@H](C)[C@H](O)[C@@H](C)[C@@H](O)[C@@H](C)[C@H](OC(C)=O)[C@@H]1C.[Na+]` ; its ΔsseA inhibition of growth = −352

# compound `Cc1onc(-c2ccccc2Cl)c1C(=O)N[C@@H]1C(=O)N2[C@@H]1SC(C)(C)[C@@H]2C(=O)O` ; its ΔsseA inhibition of growth = −182

# compound `CN1CCN(CCCN2c3ccccc3Sc3ccc(C(F)(F)F)cc32)CC1` ; its ΔsseA inhibition of growth = −372

# compound `CO[C@@H]1[C@@H](OC(N)=O)[C@@H](O)[C@H](Oc2ccc3c(O)c(NC(=O)c4ccc(O)c(CC=C(C)C)c4)c(=O)oc3c2C)OC1(C)C` ; its ΔsseA inhibition of growth = −265

# compound `Nc1ccc2cc3ccc(N)cc3nc2c1` ; its ΔsseA inhibition of growth = −93

# compound `CO[C@@H]1[C@@H](O[C@@H]2O[C@H](C)[C@@H](O[C@H]3C[C@@](C)(O)[C@@H](OC(=O)CC(C)C)[C@H](C)O3)[C@H](N(C)C)[C@H]2O)[C@@H](CC=O)C[C@@H](C)[C@@H](O)/C=C/C=C/C[C@@H](C)OC(=O)C[C@H]1OC(C)=O` ; its ΔsseA inhibition of growth = −294
